# measurement_target: human recombinant heparanase (h-hpa) (Homo sapiens)
# Sequence (Q9Y251 158-543 limits assumed): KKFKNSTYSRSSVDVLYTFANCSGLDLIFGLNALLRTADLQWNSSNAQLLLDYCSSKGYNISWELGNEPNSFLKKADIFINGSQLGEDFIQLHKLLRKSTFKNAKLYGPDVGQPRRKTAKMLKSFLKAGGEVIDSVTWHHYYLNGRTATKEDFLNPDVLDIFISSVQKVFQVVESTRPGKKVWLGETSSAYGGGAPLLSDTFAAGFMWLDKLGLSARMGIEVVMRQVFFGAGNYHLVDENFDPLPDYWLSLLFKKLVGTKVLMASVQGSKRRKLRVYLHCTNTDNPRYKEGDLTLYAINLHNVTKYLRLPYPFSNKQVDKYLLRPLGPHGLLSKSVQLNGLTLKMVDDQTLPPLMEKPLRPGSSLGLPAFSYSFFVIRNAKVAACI
# Sequence (Q9Y251 36-109 limits assumed): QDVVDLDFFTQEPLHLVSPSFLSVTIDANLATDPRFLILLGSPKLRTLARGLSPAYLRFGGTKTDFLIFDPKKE
# method_summary: In vitro dimethylmethylene blue (DMB) assay for heparanase activity
readout_type: pIC50
Numbers only, as −log10 of the molar value.

Go through the list and state pIC50 for each entry.
1. CCCCCCCCCCCCCCCCCC1=NN(c2ccc(Oc3ccccc3)c(S(=O)(=O)O)c2)C(=O)C1/N=N/c1c(C)n[nH]c1C (stereo not drawn)
2. CCCCCCCCCCCCCCCCCCC(=O)CC(=O)Nc1ccc(Oc2ccc(C(=O)O)cc2)c(C(=O)O)c1
3. CCCCCCCCCCCCCC(=O)NC1=NN(c2ccc(Oc3ccccc3)c(S(=O)(=O)O)c2)C(=O)C1
4. CCCCCCCCCCCCCCCCCC(=O)NC1=NN(c2ccc(Oc3ccccc3)c(S(=O)(=O)O)c2)C(=O)C1/N=N/c1c(C)nn(C)c1C (stereo not drawn)
5. CCCCCCCCCCCCCCCCCC(=O)NNC(=O)CC(=O)Nc1ccccc1C(=O)O
6. CCCCCCCCCCCCCCCCCC1=Nn2c(nc3cc(C(=O)O)ccc32)C1S(=O)(=O)O (stereo not drawn)

Result:
6.62
5.52
6.40
6.19
5.77
5.85

Go through the list and state pIC50 for each entry.
1. CCCCCCCCCCCCCCCCCCn1c(C)nc2cc(S(=O)(=O)O)ccc21
2. CCCCCCCCCCCCCCCCCCn1c(-c2ccccc2)nc2cc(S(=O)(=O)O)ccc21
3. CCCCCCCCCCCCCCCCCC1=NN(c2ccc(Oc3ccccc3)c(S(=O)(=O)O)c2)C(=O)C1/N=N/c1ccc(N(CC)CC)cc1 (stereo not drawn)

Result:
5.85
6.20
6.59

Go through the list and state pIC50 for each entry.
1. CCCCCCCCCCCCCCCCn1c(/N=C/c2cc(Cl)cc(Br)c2O)nc2ccccc21
2. CCCCCCCCCCCCCCCCS(=O)(=O)c1ccc(N2N=C(NC(=O)c3ccccc3S(=O)(=O)O)C(/N=N\c3ccc(O)cc3Cl)C2=O)cc1 (stereo not drawn)
3. CCCCCCCCCCCCCCC(=O)NC1=NN(c2ccc(Oc3ccccc3)c(S(=O)(=O)O)c2)C(=O)C1
4. CCCCCCCCCCCC1OC1CCCCC(=O)NC1=NN(c2ccc(Oc3ccccc3)c(S(=O)(=O)O)c2)C(=O)C1 (stereo not drawn)
5. C=CCCCCCCCCC(=O)CCCCCC(=O)Nc1cc(C(=O)O)ccc1Oc1cc(C(=O)O)cc(C(=O)O)c1

Result:
1. 5.52
2. 6.70
3. 6.14
4. 6.57
5. 4.74

Problem: For the molecule "CCCCCCCCCCCCCCCCCCN(C)c1ccc(S(=O)(=O)O)cc1NC(=O)c1cc(/N=N/c2c(Cl)cccc2Cl)c2ccccc2c1O" , report pIC50.
Result: 6.40
